- Substrate: O=[N+]([O-])c1ccc(OP(=O)(O)O)cc1
- PROCEDURE DETAILS: chromogenic phosphatase assay, A400
- Type: biochemical, Thermosynechococcus vestitus
- ASSAY SETUP: 50 mM Tris-HCl pH 8.3, 50 mM NaCl, 1 mM DTT, 2 mM MnCl2, 30 °C, pNPP 0.1-10 mM
ENDPOINT LABEL: Km
Remember to quote the unit after the number.

# PROTEIN, ENDPOINT LABEL, VALUE
data = [
    ("tPphA (Thermosynechococcus vestitus BP-1) (protein) MDVAGLTDCGLIRKSNQDAFYIDEKHQRFFIVADGMGGHAGGEEASRLAVDHIRQYLETHLEDLQHDPVTLLRQAFLAANHAIVEQQRQNSARADMGTTAVVILLDEKGDRAWCAHVGDSRIYRWRKDQLQQITSDHTWIAQAVQLGSLTIEQARQHPWRHVLSQCLGREDLSQIDIQPIDLEPGDRLLLCSDGLTEELTDDVISIYLSEPNVQKAAAALVDAAKTHGGRDNVTVVVISV", "Km", "1.06 ± 0.05 mM"),
    ("tPphA (Thermosynechococcus vestitus BP-1; R13Q) (protein) MDVAGLTDCGLIQKSNQDAFYIDEKHQRFFIVADGMGGHAGGEEASRLAVDHIRQYLETHLEDLQHDPVTLLRQAFLAANHAIVEQQRQNSARADMGTTAVVILLDEKGDRAWCAHVGDSRIYRWRKDQLQQITSDHTWIAQAVQLGSLTIEQARQHPWRHVLSQCLGREDLSQIDIQPIDLEPGDRLLLCSDGLTEELTDDVISIYLSEPNVQKAAAALVDAAKTHGGRDNVTVVVISV", "Km", "4.06 ± 0.21 mM"),
    ("tPphA (Thermosynechococcus vestitus BP-1; R13P) (protein) MDVAGLTDCGLIPKSNQDAFYIDEKHQRFFIVADGMGGHAGGEEASRLAVDHIRQYLETHLEDLQHDPVTLLRQAFLAANHAIVEQQRQNSARADMGTTAVVILLDEKGDRAWCAHVGDSRIYRWRKDQLQQITSDHTWIAQAVQLGSLTIEQARQHPWRHVLSQCLGREDLSQIDIQPIDLEPGDRLLLCSDGLTEELTDDVISIYLSEPNVQKAAAALVDAAKTHGGRDNVTVVVISV", "Km", "4.77 ± 0.17 mM"),
]

Next protein, please.
Task: Which Km is reported for this protein? tPphA (Thermosynechococcus vestitus BP-1; R13A) (protein) MDVAGLTDCGLIAKSNQDAFYIDEKHQRFFIVADGMGGHAGGEEASRLAVDHIRQYLETHLEDLQHDPVTLLRQAFLAANHAIVEQQRQNSARADMGTTAVVILLDEKGDRAWCAHVGDSRIYRWRKDQLQQITSDHTWIAQAVQLGSLTIEQARQHPWRHVLSQCLGREDLSQIDIQPIDLEPGDRLLLCSDGLTEELTDDVISIYLSEPNVQKAAAALVDAAKTHGGRDNVTVVVISV
Output: 5.11 ± 0.23 mM
